assay_comment: Stability in mouse serum assessed as half life measured after 1 hr by HPLC analysis
Format: ADME, cell-free
Peptide text beside a SMILES is read from it. * marks the point of attachment. Lauroyl = CCCCCCCCCCCC(=O)*; Octanoyl = CCCCCCCC(=O)*
Reported half-life by item:

molecule | result_units | half-life
CCCCCCCCCCCC(=O)N[C@@H](CCCCN)C(=O)N[C@@H](CCCCN)C(=O)N[C@@H](Cc1c[nH]c2ccccc12)C(=O)N[C@@H](Cc1c[nH]c2ccccc12)C(N)=O (Lauroyl-KKWW-NH2) | h | 4.25
CCCCCCCC(=O)NCCCC[C@H](NC(=O)CCCCCCC)C(=O)N[C@@H](CCCCN)C(=O)N[C@@H](CCCCN)C(=O)N[C@@H](Cc1c[nH]c2ccccc12)C(=O)N[C@@H](Cc1c[nH]c2ccccc12)C(N)=O (Octanoyl-K(Octanoyl)KKWW-NH2) | h | 6.3

###

Test system: Escherichia coli
assay_comment: Antibacterial activity against Escherichia coli ATCC 25922 assessed as reduction in bacterial growth incubated for 18 to 24 hrs by broth microdilution method
Format: functional
particulars: time 18-24 hrs
Peptide text beside a SMILES is read from it. * marks the point of attachment. Myristoyl = CCCCCCCCCCCCCC(=O)*; Lauroyl = CCCCCCCCCCCC(=O)*; Octanoyl = CCCCCCCC(=O)*; Hexanoyl = CCCCCC(=O)*; Butyryl = CCCC(=O)*

compound | MIC (µM)
CCCCCCCC(=O)N[C@@H](CCCCN)C(=O)N[C@@H](CCCCN)C(=O)N[C@@H](Cc1c[nH]c2ccccc12)C(=O)N[C@@H](Cc1c[nH]c2ccccc12)C(N)=O (Octanoyl-KKWW-NH2) | 64
CCCCCCCCCCCCCC(=O)N[C@@H](CCCCN)C(=O)N[C@@H](CCCCN)C(=O)N[C@@H](Cc1c[nH]c2ccccc12)C(=O)N[C@@H](Cc1c[nH]c2ccccc12)C(N)=O (Myristoyl-KKWW-NH2) | 32
CCCCCCCC(=O)NCCCC[C@H](NC(=O)CCCCCCC)C(=O)N[C@@H](CCCCN)C(=O)N[C@@H](CCCCN)C(=O)N[C@@H](Cc1c[nH]c2ccccc12)C(=O)N[C@@H](Cc1c[nH]c2ccccc12)C(N)=O (Octanoyl-K(Octanoyl)KKWW-NH2) | 8
CCCCCC(=O)NCCCC[C@H](NC(=O)CCCCC)C(=O)N[C@@H](CCCCN)C(=O)N[C@@H](CCCCN)C(=O)N[C@@H](Cc1c[nH]c2ccccc12)C(=O)N[C@@H](Cc1c[nH]c2ccccc12)C(N)=O (Hexanoyl-K(Hexanoyl)KKWW-NH2) | 128
CCCCCCCCCCCC(=O)N[C@@H](CCCCN)C(=O)N[C@@H](CCCCN)C(=O)N[C@@H](Cc1c[nH]c2ccccc12)C(=O)N[C@@H](Cc1c[nH]c2ccccc12)C(N)=O (Lauroyl-KKWW-NH2) | 8
CO[C@H]1/C=C/O[C@@]2(C)Oc3c(C)c(O)c4c(O)c(c(/C=N/N5CCN(C)CC5)c(O)c4c3C2=O)NC(=O)/C(C)=C\C=C\[C@H](C)[C@H](O)[C@@H](C)[C@@H](O)[C@@H](C)[C@H](OC(C)=O)[C@@H]1C | 8
CCCC(=O)N[C@@H](CCCCN)C(=O)N[C@@H](CCCCN)C(=O)N[C@@H](Cc1c[nH]c2ccccc12)C(=O)N[C@@H](Cc1c[nH]c2ccccc12)C(N)=O (Butyryl-KKWW-NH2) | 128

###

Reported MIC by item:
Test system: Klebsiella pneumoniae
assay_comment: Antibacterial activity against Klebsiella pneumoniae ATCC 700603 assessed as reduction in bacterial growth incubated for 18 to 24 hrs by broth microdilution method
Type: functional
particulars: time 18-24 hrs
Peptide text beside a SMILES is read from it. * marks the point of attachment. Lauroyl = CCCCCCCCCCCC(=O)*; Decanoyl = CCCCCCCCCC(=O)*; Octanoyl = CCCCCCCC(=O)*; Butyryl = CCCC(=O)*
measurement_kind: MIC (µM)

compound | quantitative_result
CCCCCCCC(=O)N[C@@H](CCCCN)C(=O)N[C@@H](CCCCN)C(=O)N[C@@H](Cc1c[nH]c2ccccc12)C(=O)N[C@@H](Cc1c[nH]c2ccccc12)C(N)=O (Octanoyl-KKWW-NH2) | 128
CO[C@H]1/C=C/O[C@@]2(C)Oc3c(C)c(O)c4c(O)c(c(/C=N/N5CCN(C)CC5)c(O)c4c3C2=O)NC(=O)/C(C)=C\C=C\[C@H](C)[C@H](O)[C@@H](C)[C@@H](O)[C@@H](C)[C@H](OC(C)=O)[C@@H]1C [RIFAMPIN] | 16
CCCCCCCCCC(=O)NCCCC[C@H](NC(=O)CCCCCCCCC)C(=O)N[C@@H](CCCCN)C(=O)N[C@@H](CCCCN)C(=O)N[C@@H](Cc1c[nH]c2ccccc12)C(=O)N[C@@H](Cc1c[nH]c2ccccc12)C(N)=O (Decanoyl-K(Decanoyl)KKWW-NH2) | 128
CCCCCCCCCCCC(=O)N[C@@H](CCCCN)C(=O)N[C@@H](CCCCN)C(=O)N[C@@H](Cc1c[nH]c2ccccc12)C(=O)N[C@@H](Cc1c[nH]c2ccccc12)C(N)=O (Lauroyl-KKWW-NH2) | 16
CCCC(=O)NCCCC[C@H](NC(=O)CCC)C(=O)N[C@@H](CCCCN)C(=O)N[C@@H](CCCCN)C(=O)N[C@@H](Cc1c[nH]c2ccccc12)C(=O)N[C@@H](Cc1c[nH]c2ccccc12)C(N)=O (Butyryl-K(Butyryl)KKWW-NH2) | 128
CCCCCCCCCCCC(=O)NCCCC[C@H](NC(=O)CCCCCCCCCCC)C(=O)N[C@@H](CCCCN)C(=O)N[C@@H](CCCCN)C(=O)N[C@@H](Cc1c[nH]c2ccccc12)C(=O)N[C@@H](Cc1c[nH]c2ccccc12)C(N)=O (Lauroyl-K(Lauroyl)KKWW-NH2) | 128
CC(=O)OCC1=C(C(=O)O)N2C(=O)[C@@H](NC(=O)Cc3cccs3)[C@H]2SC1 [CEPHALOTHIN] | 16
